System: glycogen synthase
Test: Glycogen Synthase (GS) Assay
Type: biochemical
Details: compound concentration needed to give 50% maximum activation; coupled pyruvate kinase/lactate dehydrogenase assay, absorbance at 340 nm
readout_name: EC50 (nM)

CCS(=O)(=O)N(CC(=O)O)Cc1cccc(COc2ccc(-c3cc(F)c(F)cc3F)cc2)c1 [Example 18]	160
COc1cc(F)c(F)cc1-c1ccc(OCc2cccc(CN(CC(=O)O)C(=O)[C@H]3CCCO3)c2)cc1 [Example 33]	350
CCS(=O)(=O)N(CC(=O)O)Cc1cccc(COc2ccc(-c3cc(F)c(F)cc3OC)cc2)c1 [Example 7]	310
COCCC(=O)N(CC(=O)O)Cc1cccc(COc2ccc(-c3cc(F)c(F)cc3OC)cc2)c1 [Example 26]	450
COc1cc(F)c(F)cc1-c1ccc(OCc2cccc(CN(CC(=O)O)S(=O)(=O)c3ccccc3)c2)cc1 [Example 8]	910

[1] COc1cc(F)c(F)cc1-c1ccc(OCc2cccc(CN3[C@@H](C(=O)O)CCCS3(=O)=O)c2)cc1 [Example 55]
[2] Cc1cc(F)c(F)cc1-c1ccc(OCc2cccc(CN3[C@H](C(=O)O)CCS3(=O)=O)c2)cc1 [Example 48]
Task: Lower value of EC50 belongs to which: 1 or 2 ? Indicate which entry you chose by stating its label.
Output: 2
(2: 110 nM, 1: 330 nM)

----------
Tested on: glycogen synthase
Experiment: Glycogen Synthase (GS) Assay
Type: biochemical
Settings: compound concentration needed to give 50% maximum activation; coupled pyruvate kinase/lactate dehydrogenase assay, absorbance at 340 nm
readout_name: EC50 (µM)

O=C(O)[C@@H]1CCC(=O)N1Cc1cccc(COc2ccc(-c3cc(F)c(F)cc3F)cc2)c1	0.13
O=C(O)CN(Cc1cccc(COc2ccc(-c3ccc(F)cc3F)cc2)c1)C(=O)N1CCOCC1	0.93
COc1cc(F)c(F)cc1-c1ccc(OCc2cccc(CN(CC(=O)O)C(=O)C(C)(C)C)c2)cc1	1.34

[P] O=C(O)C(F)(F)F.O=C(O)[C@@H]1CCCN1Cc1cccc(COc2ccc(-c3ccc(F)cc3F)cc2)c1
[Q] COc1cc(F)c(F)cc1-c1ccc(OCc2cccc(CN(CC(=O)O)C(=O)OC(C)C)c2)cc1
Task: Of P and Q , which shows the smaller EC50 value? Refer to your chosen item by its label in the answer.
Output: Q
(Q: 0.47 µM, P: 3.71 µM)

[A] COc1cc(F)c(F)cc1-c1ccc(OCc2nc(CN3[C@H](C(=O)O)CCS3(=O)=O)cs2)cc1
[B] CCOC(=O)N(CC(=O)O)Cc1cccc(COc2ccc(-c3cc(F)c(F)cc3OC)cc2)c1
[C] COC(=O)N(CC(=O)O)Cc1cccc(COc2ccc(-c3cc(F)c(F)cc3OC)cc2)c1
Task: Task for the reader: rank each entry by its EC50, from the minimum upward. Give the order by naming the labels one after another as requested.
Output: A, C, B

----------
Tested on: glycogen synthase
Assay: Glycogen Synthase (GS) Assay
Format: biochemical
Settings: compound concentration needed to give 50% maximum activation; coupled pyruvate kinase/lactate dehydrogenase assay, absorbance at 340 nm
readout_name: EC50 (nM)

These solved cases illustrate the format of a correct answer.
O=C(O)CN(Cc1cccc(COc2ccc(-c3ccc(F)cc3F)cc2)c1)C(=O)C1CC1 [Example 12]	4310
COc1cc(F)c(F)cc1-c1ccc(OCc2cccc(CN(CC(=O)O)C(=O)[C@@H]3CCCO3)c2)cc1 [Example 25]	410

[A] O=C(O)[C@@H]1CCS(=O)(=O)N1Cc1cccc(COc2ccc(-c3cc(F)c(F)cc3Cl)cc2)c1 [Example 51]
[B] COc1cc(F)c(F)cc1-c1ccc(OCc2cccc(CN(CC(=O)O)C(=O)N3CCOCC3)c2)cc1 [Example 3]
Task: Would you mind telling me which has the lower recorded EC50 between A and B ? Respond using the label that marks the chosen record.
Output: A

----------
System: glycogen synthase
Experiment: Glycogen Synthase (GS) Assay
Assay type: biochemical
Conditions: compound concentration needed to give 50% maximum activation; coupled pyruvate kinase/lactate dehydrogenase assay, absorbance at 340 nm
readout_name: EC50 (nM)

Here's what some known entries look like.
O=C(O)[C@H]1CCCS(=O)(=O)N1Cc1cccc(COc2ccc(-c3cc(F)c(F)cc3F)cc2)c1	2340
COc1cc(F)c(F)cc1-c1ccc(OCc2cccc(CN(CC(=O)O)Cc3ccccc3)c2)cc1	1460

[a] COc1cc(F)c(F)cc1-c1ccc(OCc2cccc(CN(CC(=O)O)C(C)=O)c2)cc1
[b] O=C(O)[C@@H]1CCCS(=O)(=O)N1Cc1cccc(COc2ccc(-c3cc(F)c(F)cc3F)cc2)c1
Task: Sorting by EC50 in descending order, would a or b appear first? Answer by quoting the chosen item's label.
Output: a
(a: 430 nM, b: 60 nM)

----------
Tested on: glycogen synthase
Experiment: Glycogen Synthase (GS) Assay
Type: biochemical
Details: compound concentration needed to give 50% maximum activation; coupled pyruvate kinase/lactate dehydrogenase assay, absorbance at 340 nm
readout_name: EC50 (nM)

[I] CCC(=O)N(CC(=O)O)Cc1cccc(COc2ccc(-c3cc(F)c(F)cc3OC)cc2)c1 [Example 23]
[II] COc1cc(F)c(F)cc1-c1ccc(OCc2cccc(CNCC(=O)O)c2)cc1.Cl [Example 37]
[III] O=C(O)[C@H]1CCS(=O)(=O)N1Cc1cccc(COc2ccc(-c3cc(F)c(F)cc3F)cc2)c1 [Example 47]
Task: # desc sort on EC50 across 3 molecules Write the labels, ordered according to the request.
Output: II, III, I

[a] O=C(O)C1CCS(=O)(=O)N1Cc1cccc(COc2ccc(-c3cc(F)c(F)cc3Cl)cc2)c1 (racemic) [Example 40]
[b] COc1cc(F)c(F)cc1-c1ccc(OCc2cccc(CN(CC(=O)O)S(=O)(=O)C3CC3)c2)cc1 [Example 9]
Task: Among a and b , whose measured EC50 is the smaller figure? Mark your selection by writing its label.
Output: a

[P] COc1cc(F)c(F)cc1-c1ccc(OCc2cncc(CN3C(C(=O)O)CCS3(=O)=O)c2)cc1 (centres unmarked) [Example 63]
[Q] CC(C)(C)C(=O)N(CC(=O)O)Cc1cccc(COc2ccc(-c3ccc(F)cc3F)cc2)c1 [Example 11]
[R] COc1cc(F)c(F)cc1-c1ccc(OCc2cccc(CN3[C@H](C(=O)O)CCS3(=O)=O)c2)cc1 [Example 45]
Task: Ascending sort, EC50. A complete answer lists every label in the requested sequence.
Output: R, P, Q
(R: 120 nM, P: 550 nM, Q: 3670 nM)

----------
System: glycogen synthase
Test: Glycogen Synthase (GS) Assay
Assay type: biochemical
Details: compound concentration needed to give 50% maximum activation; coupled pyruvate kinase/lactate dehydrogenase assay, absorbance at 340 nm
pEC50: −log10 of the molar value.
readout_name: pEC50

[I] COc1cc(F)c(F)cc1-c1ccc(OCc2cccc(CN3C(=O)CC[C@H]3C(=O)O)c2)cc1
[II] Cn1ccnc1C(=O)N(CC(=O)O)Cc1cccc(COc2ccc(-c3ccc(F)cc3F)cc2)c1
[III] COc1cc(F)c(F)cc1-c1ccc(OCc2cccc(CN3C(C(=O)O)CCS3(=O)=O)c2)cc1 (racemic)
[IV] O=C(O)[C@H]1CCS(=O)(=O)N1Cc1cccc(COc2ccc(-c3cc(F)c(F)cc3Cl)cc2)c1
Task: Sequence the entries by pEC50, beginning with the highest number. Quick reminder: the answer is the labels in the order asked.
Output: I, III, IV, II
(I: 6.92, III: 6.72, IV: 6.08, II: 5.88)

----------
Test system: glycogen synthase
Assay: Glycogen Synthase (GS) Assay
Assay type: biochemical
Conditions: compound concentration needed to give 50% maximum activation; coupled pyruvate kinase/lactate dehydrogenase assay, absorbance at 340 nm
pEC50: −log10 of the molar value.
readout_name: pEC50

COc1cc(F)c(F)cc1-c1ccc(OCc2cccc(CN(CC(=O)O)C(=O)c3ccccc3)c2)cc1	6.35

[a] O=C(O)CN(Cc1cccc(COc2ccc(-c3ccc(F)cc3F)cc2)c1)C(=O)c1cccnc1
[b] O=C(O)[C@@H]1CCS(=O)(=O)N1Cc1cccc(COc2ccc(-c3cc(F)c(F)cc3F)cc2)c1
Task: # returns the entry with the larger pEC50; inputs a and b Reply with the label of the item you choose.
Output: b
